- System Name: Ubiquitin-conjugating enzyme E2 N (Homo sapiens)
- Procedure Text: potency of analogues against UBC13 chain formation – biochemical, TR-FRET, set 2, SAR follow-up (AID 588390)
- Test Conditions: UBC13 polyubiquitination
Calls of active or inactive are those of the source. No rule for the calls is given here.
Possible outcomes: t for active, f for inactive

- Molecule: "CCOc1ccc(NC(=O)CN2CCC(n3cnc4cc(F)ccc43)CC2)cc1"
  System Name: "Ubiquitin-conjugating enzyme E2 N (Homo sapiens)"
  Category: "f"
- Molecule: "O=C(C1CCN(c2ncnc3c2nc2n3CCCCC2)CC1)N1CCN(Cc2ccccc2)CC1"
  System Name: "Ubiquitin-conjugating enzyme E2 N (Homo sapiens)"
  Category: "t"
- Molecule: "COc1ccccc1N1CCN(CCCNC(=O)C2CCCN(c3ncnc4c3nc3n4CCCCC3)C2)CC1 (stereo not given)"
  System Name: "Ubiquitin-conjugating enzyme E2 N (Homo sapiens)"
  Category: "f"
- Molecule: "O=C(C1CCN(c2ncnc3c2nc2n3CCCCC2)CC1)N1CCN(c2ccccn2)CC1"
  System Name: "Ubiquitin-conjugating enzyme E2 N (Homo sapiens)"
  Category: "f"
- Molecule: "Cc1nc2cc(F)ccc2n1C1CCN(CC(=O)Nc2ccccc2)CC1"
  System Name: "Ubiquitin-conjugating enzyme E2 N (Homo sapiens)"
  Category: "f"
- Molecule: "O=C(CN1CCC(n2cnc3cc(F)ccc32)CC1)Nc1cccc(C(F)(F)F)c1"
  System Name: "Ubiquitin-conjugating enzyme E2 N (Homo sapiens)"
  Category: "f"
- Molecule: "Cc1cccc(NC(=O)CN2CCC(n3cnc4cc(F)ccc43)CC2)c1C"
  System Name: "Ubiquitin-conjugating enzyme E2 N (Homo sapiens)"
  Category: "f"
- Molecule: "CC1(C)Cc2c(sc(NC(=O)C(=O)NCC3CCCO3)c2C(=O)O)CO1 (stereo not given)"
  System Name: "Ubiquitin-conjugating enzyme E2 N (Homo sapiens)"
  Category: "f"
- Molecule: "O=C(NCCCN1CCN(c2ccc(F)cc2)CC1)C1CCCN(c2ncnc3c2nc2n3CCCCC2)C1 (stereo not given)"
  System Name: "Ubiquitin-conjugating enzyme E2 N (Homo sapiens)"
  Category: "t"
- Molecule: "Cc1cccc(N2CCN(CCCNC(=O)C3CCCN(c4ncnc5c4nc4n5CCCCC4)C3)CC2C)c1 (stereo not given)"
  System Name: "Ubiquitin-conjugating enzyme E2 N (Homo sapiens)"
  Category: "f"
